Molecular target: Metabotropic glutamate receptor 8 (Rattus norvegicus)
Assay: mGluR8 Gi/Go-coupled signaling modulation – cell-based, rat, thallium flux, HTS, primary screen (AID 488969)
Conditions: HEK293 rat mGluR8, GIRK thallium flux, FluoZin2; at 10 µM; stronger effect = higher value
The full ranking holds about 110,000 compounds; the median of “z-score” is about -0.1, and the highest 2% start at about 2. What follows is part of a selection rich in the highest values, with near analogues and random picks from the rest.
Reported z-score values are given for each entry in this list.
Lab note: record the figure alone, no unit after it.

Would you please look over these solved cases?
CCC(C)N1C(=O)/C(=C/c2ccc3c(c2)CCN3CCCCl)C(=O)NC1=S (stereo not given) | -0.358
O=C(CN1C(=O)CN=C(c2ccccc2Cl)c2cc(Cl)ccc21)NCc1ccco1 | 2.98
CCC(C)N1C(=O)/C(=C\c2ccc(N3CCCCCC3)cc2)C(=O)NC1=S (stereo not given) | -0.384
CC(C)CN(CC(C)C)c1ccc(C=C2C(=O)NC(=S)NC2=O)cc1[N+](=O)[O-] | 2.35

Consider the additional compound presented here.
Suppose we examine the compound "Cn1c(O)c(C=NCCN2CCNCC2)c(=O)n(C)c1=O" ; what z-score value has been reported?
-0.337

----------
Reported z-score values are given for each entry in this list.
Target: Metabotropic glutamate receptor 8 (Rattus norvegicus)
Assay: mGluR8 Gi/Go-coupled signaling modulation – cell-based, rat, thallium flux, HTS, primary screen (AID 488969)
Settings: HEK293 rat mGluR8, GIRK thallium flux, FluoZin2; at 10 µM; stronger effect = higher value
The full ranking holds about 110,000 compounds; the median of “z-score” is about -0.1, and the highest 2% start at about 2. The sample holds the highest values, similar compounds and a random draw of the others, so the mix is not that of the screen.
Lab note: record the figure alone, no unit after it.

Would you please look over these solved cases?
O=C(Cn1c(=S)[nH]c2ccccc2c1=O)N1CCC2(CC1)OCCO2 | 0.264
O=C(NC(=C(Cl)Cl)P(=O)(c1ccccc1)c1ccccc1)c1ccccc1 | -0.29
O=C(c1cc2ccccn2n1)N1CCC2(CC1)OCCO2 | 4

Consider the additional molecule presented here.
Suppose we examine the molecule CC1(C)CN2C(c3ccc(Cl)cc3)N2C1 (stereo not given) ; what z-score value has been reported?
0.161

----------
Target: Metabotropic glutamate receptor 8 (Rattus norvegicus) (UniProt P70579)
Sequence (P70579 whole entry, looked up): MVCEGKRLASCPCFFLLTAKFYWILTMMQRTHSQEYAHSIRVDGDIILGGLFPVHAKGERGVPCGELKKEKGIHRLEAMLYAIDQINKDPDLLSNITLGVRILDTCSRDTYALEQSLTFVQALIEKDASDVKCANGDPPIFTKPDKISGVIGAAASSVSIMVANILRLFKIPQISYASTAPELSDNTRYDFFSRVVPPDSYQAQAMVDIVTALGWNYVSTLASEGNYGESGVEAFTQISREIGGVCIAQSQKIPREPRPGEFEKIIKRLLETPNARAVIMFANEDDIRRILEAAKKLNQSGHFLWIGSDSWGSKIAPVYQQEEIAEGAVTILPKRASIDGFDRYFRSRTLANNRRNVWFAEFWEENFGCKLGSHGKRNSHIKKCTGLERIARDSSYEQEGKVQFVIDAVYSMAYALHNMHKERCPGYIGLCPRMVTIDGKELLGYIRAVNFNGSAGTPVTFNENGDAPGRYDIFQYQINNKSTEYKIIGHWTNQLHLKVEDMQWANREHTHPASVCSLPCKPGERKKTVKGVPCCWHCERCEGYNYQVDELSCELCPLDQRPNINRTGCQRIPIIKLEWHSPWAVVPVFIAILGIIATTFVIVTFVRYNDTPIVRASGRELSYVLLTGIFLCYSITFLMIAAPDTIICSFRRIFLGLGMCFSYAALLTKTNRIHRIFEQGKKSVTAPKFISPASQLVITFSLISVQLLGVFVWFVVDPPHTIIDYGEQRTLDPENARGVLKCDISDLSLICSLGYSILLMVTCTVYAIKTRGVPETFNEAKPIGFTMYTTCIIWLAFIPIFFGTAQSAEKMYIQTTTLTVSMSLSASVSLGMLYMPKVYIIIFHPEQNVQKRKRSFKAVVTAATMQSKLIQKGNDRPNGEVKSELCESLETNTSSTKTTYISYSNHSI
Assay: mGluR8 Gi/Go-coupled signaling modulation – cell-based, rat, thallium flux, HTS, primary screen (AID 488969)
Details: HEK293 rat mGluR8, GIRK (G protein-gated inwardly rectifying potassium channel) thallium flux, FluoZin2; at 10 µM; stronger effect = higher value
Whole data set: some 110,000 compounds, median “z-score” near -0.1, cut for the highest 2% near 2. The entries come from a sample that favours the highest values as a whole.
Measured Metric: z-score
Lab note: record the figure alone, no unit after it.

CCOc1cc(C2NCc3ccccc3-n3cccc32)ccc1O (configuration not stated) | 1.71
CCC(COC(=O)NC)NC(=O)Oc1cccc(C)c1 (configuration not stated) | -0.336
CC(C)CC(=O)NC(Oc1ccc(Cl)cc1)C(Cl)(Cl)Cl (configuration not stated) | -0.379

Item: Cc1ccc(C)c(C2(O)CC(C)N(C)CC2C)c1 (configuration not stated) Test system: Metabotropic glutamate receptor 8 (Rattus norvegicus) (UniProt P70579) Read-out: z-score Value: ?
0.0958

Item: "CCN(CC)c1ccc(CN2CC=C(c3ccc(F)cc3)CC2)cc1" Test system: Metabotropic glutamate receptor 8 (Rattus norvegicus) (UniProt P70579) Read-out: z-score Value: ?
0.0485

Item: CCC(C)c1ccc(N2C(=O)NC(=O)/C(=C/c3cccn3CCOc3ccc(C)cc3)C2=O)cc1 (configuration not stated) Test system: Metabotropic glutamate receptor 8 (Rattus norvegicus) (UniProt P70579) Read-out: z-score Value: ?
0.272

Item: CNCC(O)c1cccc(OC(=O)c2ccccc2C)c1 (configuration not stated) Test system: Metabotropic glutamate receptor 8 (Rattus norvegicus) (UniProt P70579) Read-out: z-score Value: ?
2.34

All figures here come from PubChem BioAssay AID488969.
